# Tested on: PBL
# TEST PROTOCOL: ELISA of cytokine secretion by PBL stimulated once with peptide-pulsed DC
# Assay type: cell-based, human
# DETAILS: peptide DC ratio 16:1, one out of five experiments, six donors
No end group written: not given here.
ENDPOINT: TNF-Alfa (ng/mL)
Express the result in ng/mL but write the number alone.

> print(dat)
               ordered.residues  measured.target  endpoint  readout.number
1  SPFFLLLLL [VXL-5, SPFFLLLLL]              PBL  TNF-Alfa            14.8

Let us examine a further case.
For this sequence ( STPPVHNV [VXL-6, STPPVHNV, reference compound] ), measured TNF-Alfa is 0

====

# Tested on: PBL
# TEST PROTOCOL: Proliferation of PBL, DC indirect presentation (peptide-pulsed autologous DC)
# Assay type: cell-based, human
# DETAILS: visual inspection by light microscopy daily during 5 days; average of 5 experiments
No end group written: not given here.
ENDPOINT: Peak of Proliferation (Hours) via DC (h)
Report only the number, with the unit h understood.

Worked cases, Peak of Proliferation (Hours) via DC given:
> print(dat)
                           ordered.residues  readout.number
1     ALCRWGLLL [VXL-8, reference compound]             120
2  STPPVHNV [VXL-6, STPPVHNV, reference compound]             120
3           MTPGTQSPFFLLLLLTVLTVV [ImMucin]              96
4              LLLLTVLTV [VXL-2, LLLLTVLTV]             120

Let us examine a further case.
Query LLLTVLTVV [VXL-1, LLLTVLTVV] yields Peak of Proliferation (Hours) via DC of 120

====

# System: ImMucin specific T-cell subpopulation
# TEST PROTOCOL: Proliferation of the ImMucin-specific T-cell subpopulation after three stimulations
# Type: cell-based, human
# DETAILS: one out of two experiments, four donors
No end group written: not given here.
Listing of recorded IS (Range) by entry.

> print(dat)
                           ordered.residues                        measured.target    result
1              SPFFLLLLL [VXL-5, SPFFLLLLL]  ImMucin specific T-cell subpopulation  2.75-4.4
2              TQSPFFLLL [VXL-4, TQSPFFLLL]  ImMucin specific T-cell subpopulation  2.4-2.93
3           MTPGTQSPFFLLLLLTVLTVV [ImMucin]  ImMucin specific T-cell subpopulation   2.2-4.2
4              LLLLTVLTV [VXL-2, LLLLTVLTV]  ImMucin specific T-cell subpopulation  1.45-5.1
5  STPPVHNV [VXL-6, STPPVHNV, reference compound]  ImMucin specific T-cell subpopulation    1-1.25

// sample LLLTVLTVV [VXL-1, LLLTVLTVV] , its IS (Range) was 1.66-4.4

====

# Tested on: PBMC
# TEST PROTOCOL: Proliferation, direct presentation of peptide via PBMC (monocytes)
# Type: cell-based, human
# DETAILS: naive donors; representative of 5 experiments
No end group written: not given here.
# maps each entry to its PBL Index of stimulation (SI) via PBMC

Use the examples below as a reference point.
> print(dat)
               ordered.residues                                endpoint  result
1  LLLTVLTVV [VXL-1, LLLTVLTVV]  PBL Index of stimulation (SI) via PBMC    1.59
2  TQSPFFLLL [VXL-4, TQSPFFLLL]  PBL Index of stimulation (SI) via PBMC    1.45
3  SPFFLLLLL [VXL-5, SPFFLLLLL]  PBL Index of stimulation (SI) via PBMC     1.8

// assay PBMC, entry MTPGTQSPFFLLLLLTVLTVV [ImMucin] , PBL Index of stimulation (SI) via PBMC value = 2

PBMC data for STPPVHNV [VXL-6, STPPVHNV, reference compound] ; its PBL Index of stimulation (SI) via PBMC: 1.53

The value of PBL Index of stimulation (SI) via PBMC recorded for LLLLTVLTV [VXL-2, LLLLTVLTV] when tested on PBMC reads 1.2

The value of PBL Index of stimulation (SI) via PBMC recorded for ALCRWGLLL [VXL-8, reference compound] when tested on PBMC reads 1.5
